All values here come from patent US11292796B2.

Lab note: IC50 readings collected with mTOR (Homo sapiens, UniProt P42345) for the following compounds.
Sequence (P42345 1360-2549 limits assumed): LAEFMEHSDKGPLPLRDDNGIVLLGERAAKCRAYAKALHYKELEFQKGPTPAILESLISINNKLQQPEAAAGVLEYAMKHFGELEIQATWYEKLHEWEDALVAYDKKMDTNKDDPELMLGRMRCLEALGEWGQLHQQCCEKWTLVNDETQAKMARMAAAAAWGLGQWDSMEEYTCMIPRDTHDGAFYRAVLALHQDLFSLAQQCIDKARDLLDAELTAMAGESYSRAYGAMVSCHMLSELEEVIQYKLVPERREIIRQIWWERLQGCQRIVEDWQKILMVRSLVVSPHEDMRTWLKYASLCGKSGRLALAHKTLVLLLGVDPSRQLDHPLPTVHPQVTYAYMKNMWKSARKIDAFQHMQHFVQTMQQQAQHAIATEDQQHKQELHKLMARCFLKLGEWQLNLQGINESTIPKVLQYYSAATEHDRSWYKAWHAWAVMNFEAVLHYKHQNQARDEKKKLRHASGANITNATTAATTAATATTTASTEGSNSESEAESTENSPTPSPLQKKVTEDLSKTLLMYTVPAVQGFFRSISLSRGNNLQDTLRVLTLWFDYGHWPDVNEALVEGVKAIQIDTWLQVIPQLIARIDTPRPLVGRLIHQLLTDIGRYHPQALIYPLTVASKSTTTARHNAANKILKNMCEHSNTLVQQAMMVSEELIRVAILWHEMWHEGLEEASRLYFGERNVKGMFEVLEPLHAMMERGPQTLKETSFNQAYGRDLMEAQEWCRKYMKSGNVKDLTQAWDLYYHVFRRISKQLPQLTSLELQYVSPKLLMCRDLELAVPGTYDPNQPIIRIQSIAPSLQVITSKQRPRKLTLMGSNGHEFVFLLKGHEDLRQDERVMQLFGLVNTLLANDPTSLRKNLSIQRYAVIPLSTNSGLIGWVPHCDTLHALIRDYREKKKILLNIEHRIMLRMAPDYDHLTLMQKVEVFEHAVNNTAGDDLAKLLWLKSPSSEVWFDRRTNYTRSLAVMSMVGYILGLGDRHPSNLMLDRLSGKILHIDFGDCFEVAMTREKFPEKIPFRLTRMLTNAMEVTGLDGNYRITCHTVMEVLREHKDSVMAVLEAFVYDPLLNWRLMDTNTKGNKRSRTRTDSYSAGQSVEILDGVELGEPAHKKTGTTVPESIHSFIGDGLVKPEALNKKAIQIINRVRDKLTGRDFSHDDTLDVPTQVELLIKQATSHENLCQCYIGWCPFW
Property measured: IC50

{"Compound": "CNc1nc2c(C)cc(-c3cnc4c(n3)N(CC3CCOCC3)C(=O)CN4)cc2[nH]1", "Property measured": "IC50", "Measured": "0.005 to 250 nM"}
{"Compound": "COCCN1CC(=O)Nc2ncc(-c3cnc(C(N)=O)cc3C)nc21", "Property measured": "IC50", "Measured": "0.005 to 250 nM"}
{"Compound": "COCCCN1C(=O)CNc2ncc(-c3ccc(C(C)(C)O)nc3)nc21", "Property measured": "IC50", "Measured": "0.005 to 250 nM"}
{"Compound": "Cc1nc(C(C)(C)O)ccc1-c1cnc2c(n1)N(CC1CCOCC1)CC(=O)N2", "Property measured": "IC50", "Measured": "0.005 to 250 nM"}
{"Compound": "CO[C@H]1CC[C@H](N2C(=O)CNc3ncc(-c4ccc(-c5nc[nH]n5)nc4)nc32)CC1", "Property measured": "IC50", "Measured": "0.005 to 250 nM"}
{"Compound": "Cc1cc(-c2nc[nH]n2)c(F)cc1-c1cnc2c(n1)N(C(C)C)C(=O)CN2", "Property measured": "IC50", "Measured": "0.005 to 250 nM"}
{"Compound": "Cc1cc(-c2nnc[nH]2)ccc1-c1cnc2c(n1)N1CCN(C)CC1C(=O)N2 (centres unmarked)", "Property measured": "IC50", "Measured": "500 to 1000 nM"}
{"Compound": "COCCN1C(=O)CNc2ncc(-c3ccc(-c4cc[nH]n4)cc3)nc21", "Property measured": "IC50", "Measured": "0.005 to 250 nM"}
{"Compound": "CO[C@H]1CC[C@H](CN2C(=O)CNc3ncc(-c4ccc(-c5nc[nH]n5)nc4)nc32)CC1", "Property measured": "IC50", "Measured": "0.005 to 250 nM"}
{"Compound": "COc1ccc(-c2cnc3c(n2)N(CCC2CCOCC2)C(=O)CN3)cn1", "Property measured": "IC50", "Measured": "500 to 1000 nM"}
{"Compound": "Cc1cc(-c2nnc[nH]2)ccc1-c1cnc2c(n1)N(CCC1CCOCC1)C(C)(C)C(=O)N2", "Property measured": "IC50", "Measured": "0.005 to 250 nM"}
{"Compound": "Cc1cc(-c2cnc3c(n2)N(CC2CCOCC2)C(=O)CN3)cc2[nH]c(N)nc12", "Property measured": "IC50", "Measured": "0.005 to 250 nM"}
{"Compound": "C[C@H](O)c1ccc(-c2cnc3c(n2)N(CCC2CCOCC2)CC(=O)N3)cn1", "Property measured": "IC50", "Measured": "250 to 500 nM"}
{"Compound": "CCN1C(=O)CNc2ncc(-c3cccc4[nH]ncc34)nc21", "Property measured": "IC50", "Measured": "1000 to 10000 nM"}
{"Compound": "Cc1nc(-c2nc[nH]n2)ccc1-c1cnc2c(n1)N(CCO)C(=O)CN2", "Property measured": "IC50", "Measured": "0.005 to 250 nM"}
{"Compound": "CC(C)(O)c1ccc(-c2cnc3c(n2)N([C@H]2CC[C@@H](O)CC2)CC(=O)N3)cn1", "Property measured": "IC50", "Measured": "250 to 500 nM"}
{"Compound": "COCCN1CC(=O)Nc2ncc(-c3ccc(-c4nnc[nH]4)cc3)nc21", "Property measured": "IC50", "Measured": "0.005 to 250 nM"}
